Recorded measurements of pIC50, one per entry
Target protein (sequence): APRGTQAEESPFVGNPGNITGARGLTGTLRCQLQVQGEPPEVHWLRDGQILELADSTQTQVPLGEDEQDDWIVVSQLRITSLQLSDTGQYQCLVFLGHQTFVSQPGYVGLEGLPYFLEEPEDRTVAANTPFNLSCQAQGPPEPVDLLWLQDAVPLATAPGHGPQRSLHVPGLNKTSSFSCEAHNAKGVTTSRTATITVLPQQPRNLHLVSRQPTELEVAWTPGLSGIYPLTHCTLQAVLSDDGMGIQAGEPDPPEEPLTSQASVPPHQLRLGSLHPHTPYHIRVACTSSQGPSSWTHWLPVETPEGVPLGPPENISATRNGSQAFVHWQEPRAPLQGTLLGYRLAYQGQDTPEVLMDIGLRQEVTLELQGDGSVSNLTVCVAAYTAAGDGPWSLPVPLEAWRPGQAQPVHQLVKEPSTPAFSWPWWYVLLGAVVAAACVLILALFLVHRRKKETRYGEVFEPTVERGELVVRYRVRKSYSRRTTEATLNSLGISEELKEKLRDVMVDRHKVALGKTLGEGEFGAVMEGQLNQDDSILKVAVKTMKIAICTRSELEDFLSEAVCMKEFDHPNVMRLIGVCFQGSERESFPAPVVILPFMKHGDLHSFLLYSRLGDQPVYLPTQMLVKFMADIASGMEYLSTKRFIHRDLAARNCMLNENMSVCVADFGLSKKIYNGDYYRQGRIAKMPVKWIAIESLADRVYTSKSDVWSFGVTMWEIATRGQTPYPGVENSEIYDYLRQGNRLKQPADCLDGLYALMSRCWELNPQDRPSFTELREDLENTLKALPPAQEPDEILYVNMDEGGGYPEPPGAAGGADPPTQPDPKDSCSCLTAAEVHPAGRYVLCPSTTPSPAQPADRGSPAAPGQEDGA
pIC50: −log10 of the molar value.

Field: example entries. Status: answers known.
{"columns": ["compound", "pIC50"],
 "data": [
  ["COC[C@H](C)Nc1ncc2c(-c3ccc(S(C)(=O)=O)nc3)cc([C@H]3CC[C@H](O)CC3)n2n1 [Compound 279]", "≥ 7.00"],
  ["COC[C@H](C)Nc1ncc2c(-c3cn(C)cn3)cc([C@H]3CC[C@H](O)CC3)n2n1 [Compound 186]", "6.00 to 7.00"],
  ["CNC(=O)c1cc(-c2cc([C@H]3CC[C@H](O)CC3)n3nc(N[C@@H](C)COC(F)F)ncc23)ccn1 [Compound 411]", "≥ 7.00"]
]}

Turning now to a further record.
input: In one line, give reported pIC50 of the entry COC[C@H](C)Nc1ncc2c(-c3cnn(C(C)(C)c4nnc([C@@H]5CCCO5)o4)c3)cc([C@H]3CC[C@H](O)CC3)n2n1 [Compound 601] .
output: ≥ 7.00
